Consider the following compounds; for each one, report its NCI-60 screening: Log(RedIndex).
Test system: NCI-60 standardized human tumor cell line panel
measurement-notes: cells
Format: cell-based
details: cell line SR (LE:SR); TMI sheet
Respond using a number only.

q: Value lookup for NCI-60 screening: Log(RedIndex); key = COc1cc2cc(C(=O)N3CC(CCl)c4c3cc(OC(=O)N3CCN(C)C5CSSCC53)c3ccccc43)[nH]c2c(OC)c1OC (mixture of isomers) [Me-SS66T-CBI-TMI]
a: 1.84

q: Value lookup for NCI-60 screening: Log(RedIndex); key = COc1cc2cc(C(=O)N3C[C@@H](CCl)c4c3cc(OC(=O)N3CCN(C(=O)CCC(=O)N5CCN(C)CC5)[C@H]5CSSC[C@H]53)c3ccccc43)[nH]c2c(OC)c1OC [P-SS66C-CBI-TMI]
a: 1.15

q: Value lookup for NCI-60 screening: Log(RedIndex); key = COc1cc2cc(C(=O)N3C[C@@H](CCl)c4c3cc(OC(=O)N(CCC(=O)N3CCN(C)CC3)[C@H]3CCSSC3)c3ccccc43)[nH]c2c(OC)c1OC [P-SS60-CBI-TMI]
a: 0.91

q: Value lookup for NCI-60 screening: Log(RedIndex); key = COc1cc2cc(C(=O)N3CC(CCl)c4c3cc(OC(=O)N3CCN(C)C5CSSCC53)c3ccccc43)[nH]c2c(OC)c1OC (mixture of isomers) [Me-SS66C-CBI-TMI]
a: 0.87

====

Tested on: panel of 140 standard cancer cell lines
measurement-notes: ProliFiler-140 cancer cell line screen (CellTiterGlo, 72 h)
Assay type: cell-based
details: read-out: IC50 [M] (ProliFiler-140); A549 (Lung)
readout-name: IC50
The reply must contain the numeric value and, after it, the unit.

q: Value lookup for IC50; key = COc1cc2cc(C(=O)N3C[C@@H](CCl)c4c3cc(OC(=O)N3CCN(C(=O)CCC(=O)N5CCN(C)CC5)[C@H]5CSSC[C@H]53)c3ccccc43)[nH]c2c(OC)c1OC [P-SS66C-CBI-TMI]
a: 3.03e-08 M

====

Test system: NCI-60 standardized human tumor cell line panel
measurement-notes: cells
Type: cell-based
details: NCI-H460 (LC) cell line; log10 reductive index vs P-CC60
readout-name: NCI-60 screening: Log(RedIndex)
Respond using a number only.

q: Value lookup for NCI-60 screening: Log(RedIndex); key = COc1cc2cc(C(=O)N3C[C@@H](CCl)c4c3cc(OC(=O)N(CCC(=O)N3CCN(C)CC3)[C@H]3CCSSC3)c3ccccc43)[nH]c2c(OC)c1OC
a: 0.96

q: Value lookup for NCI-60 screening: Log(RedIndex); key = COc1cc2cc(C(=O)N3CC(CCl)c4c3cc(OC(=O)N3CCN(C)C5CSSCC53)c3ccccc43)[nH]c2c(OC)c1OC (mixture of isomers) [Me-SS66C-CBI-TMI]
a: 1.1

q: Value lookup for NCI-60 screening: Log(RedIndex); key = COc1cc2cc(C(=O)N3CC(CCl)c4c3cc(OC(=O)N3CCN(C)C5CSSCC53)c3ccccc43)[nH]c2c(OC)c1OC (mixture of isomers) [Me-SS66T-CBI-TMI]
a: 2.03

q: Value lookup for NCI-60 screening: Log(RedIndex); key = COc1cc2cc(C(=O)N3C[C@@H](CCl)c4c3cc(OC(=O)N3CCN(C(=O)CCC(=O)N5CCN(C)CC5)[C@H]5CSSC[C@H]53)c3ccccc43)[nH]c2c(OC)c1OC [P-SS66C-CBI-TMI]
a: 1.36
